Target: T1, tail-chimeric peptide IhfA3-IhfB2NTHI (nontypeable Haemophilus influenzae …)
T1 construct: also called IHF(NTHI) tail chimeric peptide; IHFNTHI tail chimeric peptide
T1 peptide: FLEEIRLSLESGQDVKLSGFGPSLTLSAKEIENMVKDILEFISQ
Assay: SPR Biacore 3000, peptide immobilized, HuMab as analyte
Measured Kd of individual entries
# output: bare number, implied unit nM

Need Kd of humanized anti-tail monoclonal antibody, heavy chain SEQ ID NO: 4 and light chain SEQ ID NO: 10 (antibody, V domains shown, also called HuTailMab; TP-21958) VH: EVQLVESGGGLVKPGGSLRLSCAASGFTFSRYGMSWVRQAPGKGLEWVATISSGGSYTYYTDSVKGRFTISRDNAKNSLYLQMNSLRAEDTAVYYCERHGGDGYWYFDVWGQGTMVTVSS VL: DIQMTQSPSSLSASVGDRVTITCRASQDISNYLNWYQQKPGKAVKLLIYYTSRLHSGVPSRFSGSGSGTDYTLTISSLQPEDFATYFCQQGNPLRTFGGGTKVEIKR , thanks. 4.3

Need Kd of humanized anti-tail monoclonal antibody, heavy chain SEQ ID NO: 5 and light chain SEQ ID NO: 11 (antibody, V domains shown, also called H10214 (11E7.C7 Humanized HC2) + L10214 (11E7.C7 Humanized LC2)) VH: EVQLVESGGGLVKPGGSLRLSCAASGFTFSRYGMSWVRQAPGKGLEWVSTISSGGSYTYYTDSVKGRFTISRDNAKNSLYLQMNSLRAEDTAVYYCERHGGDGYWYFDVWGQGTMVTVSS VL: DIQMTQSPSSLSASVGDRVTITCRASQDISNYLNWYQQKPGKAVKLLIYYTSRLHSGVPSRFSGSGSGTDYTLTISSLQPEDFATYYCQQGNPLRTFGGGTKVEIKR , thanks. 6.2

Need Kd of humanized anti-tail monoclonal antibody, heavy chain SEQ ID NO: 6 and light chain SEQ ID NO: 12 (antibody, V domains shown, also called H10215 (11E7.C7 Humanized HC3) + L10215 (11E7.C7 Humanized LC3)) VH: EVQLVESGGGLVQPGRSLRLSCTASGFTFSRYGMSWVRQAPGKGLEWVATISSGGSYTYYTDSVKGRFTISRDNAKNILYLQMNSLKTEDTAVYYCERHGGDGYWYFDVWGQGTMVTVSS VL: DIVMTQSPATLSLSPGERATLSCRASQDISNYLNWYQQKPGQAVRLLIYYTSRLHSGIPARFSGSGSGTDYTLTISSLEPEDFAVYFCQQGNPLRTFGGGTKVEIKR , thanks. 2.4

Next:
Need Kd of humanized anti-tail monoclonal antibody, heavy chain SEQ ID NO: 5 and light chain SEQ ID NO: 12 (antibody, V domains shown, also called H10214 (11E7.C7 Humanized HC2) + L10215 (11E7.C7 Humanized LC3)) VH: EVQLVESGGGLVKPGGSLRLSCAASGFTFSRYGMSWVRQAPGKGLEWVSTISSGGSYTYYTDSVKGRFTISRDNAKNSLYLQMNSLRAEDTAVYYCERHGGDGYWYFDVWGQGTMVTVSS VL: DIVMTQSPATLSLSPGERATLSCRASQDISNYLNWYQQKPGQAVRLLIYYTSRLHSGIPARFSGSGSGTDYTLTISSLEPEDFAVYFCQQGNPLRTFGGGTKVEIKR , thanks. 9.1

Need Kd of humanized anti-tail monoclonal antibody, heavy chain SEQ ID NO: 4 and light chain SEQ ID NO: 12 (antibody, V domains shown, also called H10213 (11E7.C7 Humanized HC1) + L10215 (11E7.C7 Humanized LC3)) VH: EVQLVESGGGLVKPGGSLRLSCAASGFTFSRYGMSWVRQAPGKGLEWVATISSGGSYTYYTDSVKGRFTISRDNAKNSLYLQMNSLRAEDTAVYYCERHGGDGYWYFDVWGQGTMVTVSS VL: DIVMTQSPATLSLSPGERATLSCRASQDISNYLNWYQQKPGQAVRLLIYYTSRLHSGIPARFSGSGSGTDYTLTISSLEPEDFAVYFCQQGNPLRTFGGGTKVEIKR , thanks. 5.1
